# System: M19-MEL melanoma
# Protocol Details: NCI tumour cell line growth inhibition, 48 h
Measurement Label: TGI

Worked cases, answers included:
CCOC(=O)C(N=Nc1ccc(S(N)(=O)=O)cc1)C(C)=O (centres undefined) :: > 100 µM
OCC1OC(n2cnc3c2NC=NC[C@H]3O)C(O)C1O (some centres undefined) :: > 450 µM

Incoming: Tell me reported TGI for CC(C)(C)C(=O)/C=C/c1ccc(Oc2ccccc2)cc1 , tested with M19-MEL melanoma.
Outgoing: > 100 µM

Incoming: Tell me reported TGI for CN=NN(C)C(=O)NC , tested with M19-MEL melanoma.
Outgoing: > 100 µM

====

# Tested on: OVCAR-5 ovarian
# Protocol Details: NCI tumour cell line growth inhibition, 48 h
Measurement Label: TGI

Worked cases, answers included:
O=C(O)c1nc(-c2ccccn2)c(-c2ccccn2)nc1C(=O)O :: 18.3 µM
O=C1/C(=C\c2cccn2Cc2ccccc2)c2ccccc2N1c1c(Cl)cccc1Cl :: > 100 µM

Incoming: Tell me reported TGI for COC(=O)C(=C/c1ccc(OC)cc1)/C(C(=O)O)=C(/C)c1ccccc1 , tested with OVCAR-5 ovarian.
Outgoing: > 100 µM

====

Examples of molecules with documented TGI follow.
# System: IGROV1 ovarian
# Protocol Details: NCI tumour cell line growth inhibition, 48 h

Worked cases, answers included:
Cc1ccc(C2CC(c3ccco3)=NN2c2ccccc2)o1 (stereo not drawn) :: > 100 µM
Cc1ccc(Nc2nc(N)c(C(=O)c3ccc(C#N)cc3)s2)cc1 :: > 100 µM
COc1ccnc2c1C(=O)c1nc3ccccc3c3ccnc-2c13 :: 0.704 µM

Incoming: Tell me reported TGI for O=C(CSc1nnc(-c2ccccc2NC(=O)C(F)(F)F)c(=O)[nH]1)NC(=O)Nc1ccccc1 , tested with IGROV1 ovarian.
Outgoing: > 100 µM

Incoming: Tell me reported TGI for CC(=O)Oc1ccccc1C(=O)N=C1[Se]CCCN1C(=O)c1ccccc1OC(C)=O , tested with IGROV1 ovarian.
Outgoing: 11.6 µM

Incoming: Tell me reported TGI for CN=NN(C)C(=O)NC , tested with IGROV1 ovarian.
Outgoing: > 100 µM

Incoming: Tell me reported TGI for COc1ccc(CCNC2=CC(=O)c3ncccc3C2=O)cc1OC , tested with IGROV1 ovarian.
Outgoing: 7.63 µM

Incoming: Tell me reported TGI for COC(=O)C(=C/c1ccc(OC)cc1)/C(C(=O)O)=C(/C)c1ccccc1 , tested with IGROV1 ovarian.
Outgoing: > 100 µM

Incoming: Tell me reported TGI for O=C(CC(c1ccccc1)N1CCCCC1)c1ccccc1 (stereo not drawn) , tested with IGROV1 ovarian.
Outgoing: 29.1 µM

Incoming: Tell me reported TGI for CC1(C)c2ccccc2C(=O)C12CCC(=O)CC2 , tested with IGROV1 ovarian.
Outgoing: > 100 µM

Incoming: Tell me reported TGI for CC12CCC(C(=O)OC1=O)C2(C)C (stereo not drawn) , tested with IGROV1 ovarian.
Outgoing: > 100 µM

Incoming: Tell me reported TGI for Nc1nc(Cl)cc(NCCO)n1 , tested with IGROV1 ovarian.
Outgoing: > 100 µM

Incoming: Tell me reported TGI for O=S(O)CCCCSSCc1ccccc1CSSCCCCS(=O)O , tested with IGROV1 ovarian.
Outgoing: > 100 µM

Incoming: Tell me reported TGI for CC1=CC(C2/C(=N/O)C=C(C)CC2(C)C)C(O)C(C)(C)C1 (stereo not drawn) , tested with IGROV1 ovarian.
Outgoing: 32.6 µM

Incoming: Tell me reported TGI for COc1ccccc1/C=C/c1cnccn1 , tested with IGROV1 ovarian.
Outgoing: > 10 µM

Incoming: Tell me reported TGI for C[C@H]1[C@H](C)CC[C@]2(C)CC[C@]3(C)C(=C[C@@H](O)[C@@H]4[C@@]5(C)[C@H](O)[C@@H](O)[C@H](O)C(C)(C)[C@@H]5CC[C@]43C)[C@H]12 , tested with IGROV1 ovarian.
Outgoing: > 100 µM

Incoming: Tell me reported TGI for COc1ccc2c(c1)CN1C(=N2)CSC1c1cc([N+](=O)[O-])ccc1Cl (stereo not drawn) , tested with IGROV1 ovarian.
Outgoing: > 100 µM

Incoming: Tell me reported TGI for CCN(CC)CC(C)(C)C(=O)/C=C/c1ccc(Cl)c(Cl)c1 , tested with IGROV1 ovarian.
Outgoing: 4.95 µM

Incoming: Tell me reported TGI for CCOC(=O)c1csc(NC(=O)C(C)N2CCCCC2)n1 (stereo not drawn) , tested with IGROV1 ovarian.
Outgoing: > 100 µM

====

# Tested on: NCI-H23 lung
# Protocol Details: NCI tumour cell line growth inhibition, 48 h
Examples of compounds with documented TGI follow.
Please state the figure in µM; there is no need to write the unit.

Worked cases, answers included:
O=C(NCCCNC(=O)c1ccc2c(O)c(O)ccc2c1)c1ccc2c(O)c(O)ccc2c1 :: 52.8
O=C(CN(C1CCCCC1)C1CCCCC1)Nc1ccc(S(=O)(=O)c2ccc(NC(=O)CN(C3CCCCC3)C3CCCCC3)cc2)cc1 :: 2.61
CC(=O)Oc1ccccc1C(=O)N=C1[Se]CCN1C(=O)c1ccccc1OC(C)=O :: 5.43

Incoming: What value of measured TGI is listed for O=C1NC(=O)C(c2c[nH]c3cc(Br)ccc23)=C1c1cn(C(c2ccccc2)(c2ccccc2)c2ccccc2)cn1 ?
Outgoing: 25.3

====

Examples of molecules with documented log10 TGI follow.
# System: SNB-75 CNS
# Protocol Details: NCI tumour cell line growth inhibition, 48 h
The common logarithm of TGI in µM is what is listed.

Worked cases, answers included:
Cc1[nH]n(-c2cccc(Cl)c2)c(=O)c1/C=C1\C=Nc2ccc(Br)cc21 :: 0.53
COc1ccc(CCNC2=CC(=O)c3ncccc3C2=O)cc1OC :: 0.33
COC(=O)[C@@H](NC(=O)[C@@H](OC)[C@@H]1Cc2cc3cc(OC4CC(OC5CC(O)C(O)C(C)O5)C(O)C(C)O4)c(C)c(O)c3c(O)c2C(=O)[C@H]1OC1CC(OC2CC(OC3CC(C)(O)C(O)C(C)O3)C(O)C(C)O2)C(O)C(C)O1)C(C)C (stereo not given in full) :: 0.16
COc1ccc(/C=c2/sc3n(c2=O)C(c2ccc(OC)c(OC)c2)C2=C(N=3)c3cc(F)ccc3OC2)cc1 (stereo not given) :: 1.99
Nc1ccncc1/C=C1/C(=O)Nc2ccccc21 :: 1.80

Incoming: Tell me reported log10 TGI for O=C(CN(C1CCCCC1)C1CCCCC1)Nc1ccc(S(=O)(=O)c2ccc(NC(=O)CN(C3CCCCC3)C3CCCCC3)cc2)cc1 , tested with SNB-75 CNS.
Outgoing: 0.97

Incoming: Tell me reported log10 TGI for CCCS(=O)(=O)Nc1ccc(Nc2c3ccccc3nc3ccccc23)c(OC)c1 , tested with SNB-75 CNS.
Outgoing: 0.81

Incoming: Tell me reported log10 TGI for N#Cc1c(-c2ccccc2)[nH]c2ccccc2c1=O , tested with SNB-75 CNS.
Outgoing: 1.58

Incoming: Tell me reported log10 TGI for Cc1cc(NC(=O)c2ccc(C)c(Nc3nccc(-c4cccnc4)n3)c2)cc(-n2cnc(C)c2)c1 , tested with SNB-75 CNS.
Outgoing: 0.45

Incoming: Tell me reported log10 TGI for Cc1c(C2Nc3ccccc3C2C)[nH]c2ccccc12 (stereo not given) , tested with SNB-75 CNS.
Outgoing: 1.47

====

# Tested on: HOP-62 NSCLC
# Protocol Details: NCI tumour cell line growth inhibition, 48 h
Measurement Label: log10(TGI) (log10 of the value in µM)
The common logarithm of TGI in µM is what is listed.

Worked cases, answers included:
CCOC(=O)CC1c2ccc(O)cc2OC(=O)C1c1ccc([N+](=O)[O-])cc1 (configuration not stated) :: 1.83
O=C1c2ccn(CCCCNC(CO)(CO)CO)c2C(=O)c2c1c(O)c1ccccc1c2O :: 0.94
CC1=C(Br)C(Br)=C(C)S1=O :: 1.62
COc1ccnc2c1C(=O)c1nc3ccccc3c3ccnc-2c13 :: 0.73

Incoming: What value of measured log10(TGI) is listed for CC1=CC(C2/C(=N/O)C=C(C)CC2(C)C)C(O)C(C)(C)C1 (configuration not stated) ?
Outgoing: 1.47

Incoming: What value of measured log10(TGI) is listed for Nc1ccc(C(=O)NN2C(=O)C(Cl)C2c2ccccc2Cl)cc1 (configuration not stated) ?
Outgoing: 1.55

Incoming: What value of measured log10(TGI) is listed for CC(=O)Oc1ccc(Nc2c3ccccc3nc3ccccc23)cc1 ?
Outgoing: 0.54

Incoming: What value of measured log10(TGI) is listed for COc1cccc(CCn2c(N)c(-c3ccccc3)c3ccc([N+](=O)[O-])cc3c2=O)c1 ?
Outgoing: 1.39

Incoming: What value of measured log10(TGI) is listed for CC1(C#N)CC(C)(C)C(/C=C2/CC(C)(C)C(/C=C3/OC(=N)CC3(C)C)=N2)=N1 (configuration not stated) ?
Outgoing: 1.75

Incoming: What value of measured log10(TGI) is listed for O=C(N/N=C\c1cc(Br)ccc1O)c1ccncc1 ?
Outgoing: 1.82
